assay: Solubility in water (aqueous solution obtained); type: physicochemical; details: hydrochloride / dissolved with aqueous hydrochloric acid and distilled water
Starred links: 1 amine or outer side, 2 acyl side, 3 side chain; linkers in the order of their positions; H or OH if unused. Positions of bridges follow the written chain, without caps; N, C: chain ends. Non-standard residues stand in square brackets, D forms with d. Residues, ends and D or L forms follow the SMILES beside them. ξ: configuration not given here. *: point of attachment. X6 = CC(CN1CCN(C)CC1)SC=C1CN([*:1])C(C(=O)[*:2])CC1=O; X4 = CN(C)CC(CN(C)C)SCC1CN([*:1])C(C(=O)[*:2])CC1=O; X5 = CN1CCN(CCCSCC2CN([*:1])C(C(=O)[*:2])CC2=O)CC1; X2 = CN1CCC(SCC2CN([*:1])C(C(=O)[*:2])CC2=O)CC1; ξNMePhe(4-NMe2) = CNC(Cc1ccc(N(C)C)cc1)C(=O)O; Picolinoyl(3-OH) = O=C(c1ncccc1O)*; Phg = N[CH](C(=O)O)c1ccccc1; Abu = CC[CH](N)C(=O)O
Measurement type: Solubility: concentration of aqueous solution, in the form of hydrochloride (%)
Report the figure in % without appending any unit label.

Here's what some known entries look like.
{"columns": ["Compound", "Readout value"],
 "data": [
  ["CCCCCCCCCCNCC[S+]([O-])C1CCN2C(=O)c3coc(n3)CC(=O)CC(O)C=C(C)C=CCNC(=O)C=CC(C)C(C(C)C)OC(=O)C12 (centres unmarked)", 1],
  ["CCC1NC(=O)C(NC(=O)c2ncccc2O)C(C)OC(=O)C(c2ccccc2)NC(=O)C2CC(=O)C(CSC(CN(C)C)CN(C)C)CN2C(=O)C(Cc2ccc(N(C)C)cc2)N(C)C(=O)C2CCCN2C1=O (centres unmarked) [product AE] ({Picolinoyl(3-OH)}-T[Abu]P[ξNMePhe(4-NMe2)][X4][Phg]; ester 1-C; configuration not given here)", 7.5],
  ["CCN(C)CC[S+]([O-])C1CCN2C(=O)c3coc(n3)CC(=O)CC(O)C=C(C)C=CCNC(=O)C=CC(C)C(C(C)C)OC(=O)C12 (centres unmarked)", 10],
  ["CCC1NC(=O)C(NC(=O)c2ncccc2O)C(C)OC(=O)C(c2ccccc2)NC(=O)C2CC(=O)C(CSCCCN3CCN(C)CC3)CN2C(=O)C(Cc2ccc(N(C)C)cc2)N(C)C(=O)C2CCCN2C1=O (centres unmarked) [product AD] ({Picolinoyl(3-OH)}-T[Abu]P[ξNMePhe(4-NMe2)][X5][Phg]; ester 1-C; configuration not given here)", 10],
  ["CCC1NC(=O)C(NC(=O)c2ncccc2O)C(C)OC(=O)C(c2ccccc2)NC(=O)C2CC(=O)C(CSC3CCN(C)CC3)CN2C(=O)C(Cc2ccc(N(C)C)cc2)N(C)C(=O)C2CCCN2C1=O (centres unmarked) [product AF] ({Picolinoyl(3-OH)}-T[Abu]P[ξNMePhe(4-NMe2)][X2][Phg]; ester 1-C; configuration not given here)", 5],
  ["CC1=CC(O)CC(=O)Cc2nc(co2)C(=O)N2CCC([S+]([O-])CC(Cc3ccccc3)N(C)C)C2C(=O)OC(C(C)C)C(C)C=CC(=O)NCC=C1 (centres unmarked)", 1],
  ["CC1=CC(O)CC(=O)Cc2nc(co2)C(=O)N2CCC([S+]([O-])CCCN(C)C)C2C(=O)OC(C(C)C)C(C)C=CC(=O)NCC=C1 (centres unmarked)", 2]
]}

Problem: Would you kindly share the measured Solubility: concentration of aqueous solution, in the form of hydrochloride for CCC1NC(=O)C(NC(=O)c2ncccc2O)C(C)OC(=O)C(c2ccccc2)NC(=O)C2CC(=O)C(=CSC(C)CN3CCN(C)CC3)CN2C(=O)C(Cc2ccc(N(C)C)cc2)N(C)C(=O)C2CCCN2C1=O (centres unmarked) [product AAN] ({Picolinoyl(3-OH)}-T[Abu]P[ξNMePhe(4-NMe2)][X6][Phg]; ester 1-C; configuration not given here) ?
Result: 10
